Below, IC50 values reported for UniProt:Q92731 across several publications.
The class of a record is decided solely by its measured IC50; consult low value: < 2 nM; medium value: ≥ 2 nM and < 30 nM; high value: ≥ 30 nM

molecule: N#Cc1cc(O)cc2ccc(-c3ccc(O)c(F)c3)cc12
assigned category: medium value

molecule: O=Cc1cc(O)cc2ccc(-c3ccc(O)c(F)c3)cc12
assigned category: low value

molecule: Oc1ccc2c(c1)O[C@H](c1ccc(OCCN3CCSCC3)cc1)C1=C2CCOc2cc(O)ccc21
assigned category: medium value

molecule: Cn1cccc1-c1nc2ccccc2n1-c1ccc(O)cc1
assigned category: medium value

molecule: CCC12CCC(=O)C(c3ccc(O)cc3)=C1c1ccc3[nH]nnc3c1C2 (stereo unspecified)
assigned category: medium value

molecule: CC1=C2c3ccc(O)cc3C[C@@]23CCC[C@H](C3)C1=O
assigned category: medium value

molecule: CCCC[C@@]12CCC(=O)C(C(F)(F)F)=C1c1ccc3[nH]ncc3c1C2=O
assigned category: low value

molecule: N#Cc1ccccc1-c1ccc(O)cc1
assigned category: high value

molecule: Oc1ccc2c(c1)O[C@H](c1ccc(OCCN3CCCCCC3)cc1)C1=C2CCOc2ccccc21
assigned category: high value

molecule: CC#Cc1cc(O)cc2ccc(-c3ccc(O)c(F)c3)cc12
assigned category: medium value

molecule: CCC12CCC(=O)C(Br)=C1c1ccc3[nH]nc(F)c3c1C2 (racemic)
assigned category: low value

---

pIC50: −log10 of the molar value.
Below, pIC50 values reported for Estrogen receptor beta (Homo sapiens) across several publications.

compound: Oc1ccc2cc(-c3ccccc3)ccc2c1
rel: =
pIC50: 6.43
--
compound: CC/N=C1/C(c2ccc(O)cc2)=C(O)c2cc(O)cc(O)c21
rel: =
pIC50: 5.57
--
compound: Cc1cc([C@@H]2C(=O)c3ccc(O)cc3O[C@@H]2c2ccc(OCCN3CCCCC3)cc2)cc(C)c1O
rel: <
pIC50: 5.00
--
compound: C=CCC12CC[C@](O)(C#CC)C[C@H]1CCc1cc(O)ccc12 (single isomer, unassigned)
rel: =
pIC50: 6.60
--
compound: OC[C@@]12CC=C[C@@H](C1)[C@H](c1ccc(O)cc1)CC2
rel: =
pIC50: 7.12
--
compound: Oc1ccc([C@H]2[C@@H](c3ccc(OCCN4CCCCC4)cc3)Oc3cc(O)ccc3[C@@H]2O)cc1
rel: =
pIC50: 5.15
--
compound: Cc1cc(-c2cccc(Cl)c2)ccc1O
rel: =
pIC50: 5.68
--
compound: Cc1cc(N2Nc3c(c(=O)oc4cc(O)ccc34)-c3ccc(O)cc32)ccc1OCCN1CCC=C(C(=O)O)C1
rel: =
pIC50: 7.34
--
compound: CC[C@@]12CCC(=O)C(C3CC3)=C1c1ccc3[nH]ncc3c1C2
rel: =
pIC50: 8.11
--
compound: CCN(CC)CCOc1ccc(Cn2c3ccc(O)cc3c3sc4cc(O)ccc4c32)cc1
rel: =
pIC50: 7.79
--
compound: CC(C)Cc1c(O)cc(O)c2c1O[C@H](c1ccc(O)cc1)CC2=O
rel: =
pIC50: 7.43
--
compound: N#Cc1cc(-c2ccc(O)c(F)c2)cc2ccc(O)c(F)c12
rel: =
pIC50: 8.25
--
compound: CC1(C)Oc2cc(NS(C)(=O)=O)ccc2N(c2ccc(F)cc2)C1=O
rel: <
pIC50: 4.00
--
compound: COC(=O)COc1ccc(C2Oc3cc(O)ccc3C3=C2c2ccc(O)cc2OCC3)cc1 (configuration not stated)
rel: =
pIC50: 7.80
--
compound: CCCc1c(O)cc2ncn(-c3ccc(O)cc3)c(=O)c2c1O
rel: =
pIC50: 5.14
--
compound: Oc1ccc(-c2nc3cc(O)cc(/C=C\Br)c3o2)c(F)c1
rel: =
pIC50: 7.80
--
compound: Oc1ccc(-c2cc(F)c3cc(O)ccc3c2)cc1
rel: =
pIC50: 8.80
--
compound: C[C@]12Cc3cnn(-c4ccc(F)cc4)c3C=C1CCCC21OCCO1
rel: <
pIC50: 5.00
--
compound: COc1cc(Br)c2c(c1)C(=O)N(c1ccc(O)cc1)C2=O
rel: <
pIC50: 5.30
--
compound: O=C(O)CCOc1ccc([C@H]2Oc3cc(O)ccc3C3=C2c2ccc(O)cc2OCC3)cc1
rel: =
pIC50: 6.60
--
compound: CCC12CCC(=O)C(C)=C1c1ccc3[nH]nnc3c1C2 (configuration not stated)
rel: =
pIC50: 7.62
--
compound: Oc1ccc2c(c1)O[C@@H](c1ccc(OCCN3CCCCCC3)cc1)C1=C2CCOc2cc(O)ccc21
rel: =
pIC50: 7.87
--
compound: O=C1c2ccc(O)cc2C(=O)N1c1ccccc1
rel: <
pIC50: 5.30
--
compound: Oc1ccc(-n2c(-c3ccccc3)nc3ccccc32)cc1
rel: =
pIC50: 6.86
--
compound: Oc1ccc2c(c1)O[C@@H](c1cccc(OCCN3CCCCC3)c1)C1=C2CCOc2cc(O)ccc21
rel: =
pIC50: 6.70
--
compound: CC#C[C@]1(O)C[C@H]2CCc3cc(O)ccc3[C@]2(CC)[C@H](O)C1
rel: <
pIC50: 5.00
--
compound: C[C@@H]1C(=O)c2c(O)cc(O)cc2O[C@@H]1c1ccc(OCCN2CCCCC2)cc1
rel: =
pIC50: 5.92
--
compound: O=C(c1ccc(OCCN2C(=O)CCC2=O)cc1)c1c(-c2ccc(O)cc2)oc(=O)c2cc(O)ccc12
rel: =
pIC50: 5.24
--
compound: O=C(c1ccc(N2CCN(C(=O)c3ccc([N+](=O)[O-])cc3)CC2)cc1)c1c(-c2ccc(O)cc2)sc2cc(O)ccc12
rel: =
pIC50: 8.90
--
compound: CCC12CCC(=O)C(C)=C1c1ccc3[nH]nc(Cl)c3c1C2 (racemic)
rel: =
pIC50: 7.37
--
compound: Oc1cc(/C=C\F)c2oc(-c3ccc(O)c(F)c3)nc2c1
rel: =
pIC50: 8.49
--
compound: COC(=O)c1cc(O)cc2nc(-c3ccc(O)cc3)oc12
rel: =
pIC50: 6.45
--
compound: C=Cc1cc(O)cc2nc(-c3ccc(O)cc3C)oc12
rel: =
pIC50: 7.57
--
compound: CC(C)(C)C(=O)Oc1ccc2c(c1)O[C@H](c1ccc(OCCN3CCCCC3)cc1)C1=C2COc2cc(OC(=O)C(C)(C)C)ccc21
rel: <
pIC50: 5.00
--
compound: O=C(C1CC1)N1CC(c2ccc(O)cc2)Cc2ccc(O)cc21 (configuration not stated)
rel: =
pIC50: 5.53
--
compound: N#Cc1cc(-c2ccc(O)cc2)cc2ccc(O)c(Br)c12
rel: =
pIC50: 7.92
--
compound: Oc1ccc([C@H]2Sc3cc(O)ccc3O[C@H]2c2ccc(OCCN3CC[C@H]4C[C@H]43)cc2)cc1
rel: =
pIC50: 7.48
--
compound: Oc1ccc(-c2cc(Cl)c3cc(O)ccc3c2)cc1
rel: =
pIC50: 8.64
--
compound: O=C1c2ccccc2C(=O)N1c1ccc(O)cc1
rel: <
pIC50: 5.00
--
compound: O=C(O)c1cc(O)cc2nc(-c3ccc(O)cc3)oc12
rel: =
pIC50: 5.30
--
compound: CCC12CCC(=O)C=C1c1ccc3nn[nH]c3c1C2 (configuration not stated)
rel: =
pIC50: 5.52
--
compound: Oc1ccc(-c2ccccc2)cc1Cl
rel: =
pIC50: 5.51

---

pIC50: −log10 of the molar value.
Below, pIC50 values reported for Estrogen receptor beta (Homo sapiens, UniProt Q92731) across several publications.
# binarize pIC50: threshold 7 inclusive, high side yes (1), low side no (0)

molecule: Oc1ccc2nn(-c3ccccc3)cc2c1
assigned category: no (0)
--
molecule: CS(=O)(=O)c1ccc(C(CCCO[N+](=O)[O-])=C(c2ccc(F)cc2)c2ccc(F)cc2)cc1
assigned category: no (0)
--
molecule: N#Cc1cc(O)cc2nc(-c3ccc(O)cc3F)oc12
assigned category: yes (1)
--
molecule: C=Cc1cc(-c2ccc(O)c(F)c2)nc2ccc(O)cc12
assigned category: yes (1)
--
molecule: COC(=O)c1cc(O)cc2ncn(-c3ccc(O)cc3)c(=O)c12
assigned category: no (0)
--
molecule: CCCCC1=C2c3ccc4[nH]nnc4c3CC2(CC)CCC1=O (stereo unspecified)
assigned category: yes (1)
--
molecule: Oc1ccc2cc(-c3cc(F)c(O)c(F)c3)ccc2c1
assigned category: yes (1)
--
molecule: Oc1ccc(C2=Nc3ccc(O)cc3OC2)cc1
assigned category: no (0)
--
molecule: O=C1C(c2ccc(O)cc2)=C(c2ccccc2)c2ccc(O)cc21
assigned category: yes (1)

---

pIC50: −log10 of the molar value.
Below, pIC50 values reported for Estrogen receptor beta (Homo sapiens) across several publications.
attribute measured: pIC50

smiles string: CCCC[C@@]12CCC(=O)C(C(F)(F)F)=C1c1ccc3[nH]nc(F)c3c1C2
rel: =
observed measurement: 9.00
//
smiles string: Oc1ccc2c(c1)O[C@H](c1ccc(OCCN3CCCCC3)cc1)C1=C2CCOc2cc(O)ccc21
rel: =
observed measurement: 7.68
//
smiles string: CN(C)CCOc1ccc([C@@H]2Oc3cc(O)ccc3C3=C2c2ccc(O)cc2OCC3)cc1
rel: =
observed measurement: 7.92
//
smiles string: CC#C[C@]1(O)C[C@H]2CCc3cc(OCc4cccnc4C)ccc3[C@]2(CC)C[C@@H]1O
rel: <
observed measurement: 5.00
//
smiles string: Oc1ccc(-c2nc3cc(O)cc(/C=C\Br)c3o2)cc1
rel: =
observed measurement: 7.35
//
smiles string: O=C(O)CCOc1ccc([C@@H]2Oc3cc(O)ccc3C3=C2c2ccc(O)cc2OCC3)cc1
rel: =
observed measurement: 7.36
//
smiles string: Oc1ccc2c(c1)C=C(c1ccccc1)C21Cc2ccccc2C1
rel: =
observed measurement: 7.68
//
smiles string: CC(C)(C)Cc1c(O)cc(O)c2c1O[C@H](c1ccc(O)cc1)CC2=O
rel: =
observed measurement: 6.85
//
smiles string: CCCCCCCc1c(O)cc(O)c2c1O[C@H](c1ccc(O)cc1)CC2=O
rel: =
observed measurement: 7.16
//
smiles string: Oc1ccc([C@@H]2Cc3ccc(O)cc3O[C@@H]2c2ccc(OCCN3CCCCC3)cc2)cc1
rel: =
observed measurement: 8.05
